Reference source for all entries: paper PMC12416549

Measured on: T1, TNFR1 (Homo sapiens, UniProt P19438)
T1 chain: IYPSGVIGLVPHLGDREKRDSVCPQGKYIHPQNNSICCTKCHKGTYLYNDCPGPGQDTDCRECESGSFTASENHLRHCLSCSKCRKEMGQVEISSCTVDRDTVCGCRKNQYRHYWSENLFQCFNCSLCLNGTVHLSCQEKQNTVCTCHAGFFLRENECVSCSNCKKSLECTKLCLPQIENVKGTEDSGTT
Experimental protocol: yeast display SC50
Value type: apparent Kd (screen) (nM)

Example results:
1) E99G (designed binder) MTLQELLREEALRRAEAEAFRYALELLAEKFPEQKEYLLDLAEEIESQIRSLSGVDVEDVRKFLDKEWAWVKELLAEHPAELAEVEAARAARLAELRAGVEAKVAA	0.539
2) R97E (designed binder) MTLQELLREEALRRAEAEAFRYALELLAEKFPEQKEYLLDLAEEIESQIRSLSGVDVEDVRKFLDKEWAWVKELLAEHPAELAEVEAARAARLAELEAEVEAKVAA	0.956

P. W68P (designed binder) MTLQELLREEALRRAEAEAFRYALELLAEKFPEQKEYLLDLAEEIESQIRSLSGVDVEDVRKFLDKEPAWVKELLAEHPAELAEVEAARAARLAELRAEVEAKVAA
Q. L7T (designed binder) MTLQELTREEALRRAEAEAFRYALELLAEKFPEQKEYLLDLAEEIESQIRSLSGVDVEDVRKFLDKEWAWVKELLAEHPAELAEVEAARAARLAELRAEVEAKVAA
Could you check which of P and Q has a smaller value for apparent Kd (screen)? Could you answer with the label of the item you picked?
P
